Target: TNIK (Homo sapiens, UniProt Q9UKE5)
Sequence (Q9UKE5 whole entry): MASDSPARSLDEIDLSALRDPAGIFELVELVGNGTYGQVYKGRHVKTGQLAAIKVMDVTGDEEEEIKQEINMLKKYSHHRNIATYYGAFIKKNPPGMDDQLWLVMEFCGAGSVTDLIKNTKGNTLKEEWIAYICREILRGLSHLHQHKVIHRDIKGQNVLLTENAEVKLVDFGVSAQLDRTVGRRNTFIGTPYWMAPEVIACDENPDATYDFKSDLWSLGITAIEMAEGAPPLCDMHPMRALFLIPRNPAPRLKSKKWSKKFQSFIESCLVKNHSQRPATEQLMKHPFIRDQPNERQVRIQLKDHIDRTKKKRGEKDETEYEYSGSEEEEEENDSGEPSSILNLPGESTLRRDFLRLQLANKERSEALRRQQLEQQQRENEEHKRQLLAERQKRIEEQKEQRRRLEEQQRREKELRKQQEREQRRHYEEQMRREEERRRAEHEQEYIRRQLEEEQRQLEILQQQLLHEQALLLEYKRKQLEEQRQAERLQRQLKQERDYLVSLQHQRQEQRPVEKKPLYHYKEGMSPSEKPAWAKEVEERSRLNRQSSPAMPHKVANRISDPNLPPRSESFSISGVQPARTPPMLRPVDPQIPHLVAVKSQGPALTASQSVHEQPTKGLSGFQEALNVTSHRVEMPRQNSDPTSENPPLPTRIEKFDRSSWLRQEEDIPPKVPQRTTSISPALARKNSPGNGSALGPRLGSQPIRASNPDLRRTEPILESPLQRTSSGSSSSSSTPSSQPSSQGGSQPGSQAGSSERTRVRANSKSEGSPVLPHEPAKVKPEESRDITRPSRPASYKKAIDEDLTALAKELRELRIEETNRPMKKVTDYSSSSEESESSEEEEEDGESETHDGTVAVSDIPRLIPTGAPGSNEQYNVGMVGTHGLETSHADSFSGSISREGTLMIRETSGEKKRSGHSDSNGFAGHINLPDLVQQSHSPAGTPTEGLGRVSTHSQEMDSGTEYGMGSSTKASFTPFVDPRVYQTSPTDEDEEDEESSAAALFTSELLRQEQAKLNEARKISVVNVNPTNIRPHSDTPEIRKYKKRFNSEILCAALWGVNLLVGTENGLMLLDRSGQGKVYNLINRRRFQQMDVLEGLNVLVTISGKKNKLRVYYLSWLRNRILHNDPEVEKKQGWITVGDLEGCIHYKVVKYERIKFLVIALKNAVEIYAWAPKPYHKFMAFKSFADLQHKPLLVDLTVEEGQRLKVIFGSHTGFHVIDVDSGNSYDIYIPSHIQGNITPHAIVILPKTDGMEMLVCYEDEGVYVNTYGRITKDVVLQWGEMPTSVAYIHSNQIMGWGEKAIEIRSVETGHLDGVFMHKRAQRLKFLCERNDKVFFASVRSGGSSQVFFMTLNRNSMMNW
Experiment: TNIK enzymatic assay (radiometric 33P-ATP filter assay)
Details: second table (TNIK, MAP4K4, Collagen Production Data); read-out: TNIK_IC50
pIC50: −log10 of the molar value.
value.type: pIC50

{"compound": "O=C(Nc1ccncc1F)c1ccc(-c2c(-c3ccc(F)cc3)ncn2[C@@H]2COC[C@H]2F)o1 (racemic)", "measured": 7.22}
